Hey, just so you know, these numbers are from ChEMBL document CHEMBL4219097.

- test-name: Selectivity ratio of Ki for displacement of [3H]DTG from sigma 2 receptor in rat liver membranes to Ki for displacement of [3H]-(+)-pentazocine from sigma1 receptor in guinea pig brain cortex membranes
- Format: cell membranes
Measured Ratio Ki values are reported for all entries that follow.
measured-quantity: Ratio Ki

# compound, result-modifier, value-reported
measured = [
    ("OC1CC23CCCCC2(C1)CN(Cc1ccccc1)CC3 (racemic; syn)", "=", 2),
    ("OC1CC23CCCCC2(C1)CN(Cc1ccccc1)CC3 (racemic; anti)", "=", 17),
    ("COc1ccc(C)cc1NC(=O)OC1CC23CCCCC2(C1)CN(Cc1ccccc1)CC3 (racemic; anti)", ">", 12),
    ("c1ccc(CN2CCC34CCCCC3(CCC4)C2)cc1 (racemic)", "=", 11),
]

====

- study-target: Sigma non-opioid intracellular receptor 1 (Cavia porcellus, UniProt Q60492)
- Sequence (Q60492 whole entry): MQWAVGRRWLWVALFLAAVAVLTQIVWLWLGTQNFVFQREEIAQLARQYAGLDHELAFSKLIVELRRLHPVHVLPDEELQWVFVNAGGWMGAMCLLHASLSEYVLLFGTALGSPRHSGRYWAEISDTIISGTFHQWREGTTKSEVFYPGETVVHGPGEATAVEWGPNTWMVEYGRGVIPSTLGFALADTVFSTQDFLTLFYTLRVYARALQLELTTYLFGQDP
- test-name: Displacement of [3H]-(+)-pentazocine from sigma1 receptor in guinea pig brain cortex membranes measured after 120 mins by scintillation counting method
Measured Ki values are reported for all entries that follow.

# compound, study-target, Ki [nM]
measured = [
    ("OC1CC23CCCCC2(C1)CN(Cc1ccccc1)CC3 (racemic; syn)", "Sigma non-opioid intracellular receptor 1 (Cavia porcellus, UniProt Q60492)", 336),
    ("OC1CC23CCCCC2(C1)CN(Cc1ccccc1)CC3 (racemic; anti)", "Sigma non-opioid intracellular receptor 1 (Cavia porcellus, UniProt Q60492)", 122),
    ("COc1ccc(C)cc1NC(=O)OC1CC23CCCCC2(C1)CN(Cc1ccccc1)CC3 (racemic; anti)", "Sigma non-opioid intracellular receptor 1 (Cavia porcellus, UniProt Q60492)", 82),
    ("c1ccc(CN2CCC34CCCCC3(CCC4)C2)cc1 (racemic)", "Sigma non-opioid intracellular receptor 1 (Cavia porcellus, UniProt Q60492)", 17),
]
